Record form. Attribute: IC50. Fill in for each entry.
target: NF-kappa-B inhibitor alpha (Homo sapiens); test: Inhibition of TNFalpha-induced IkappaBalpha (unknown origin) phosphorylation expressed in human HeLa cells pretreated 30 mins before TNFalpha addition measured up to 120 mins by ELISA in presence of proteasome inhibitor MG-132
Sequence (P25963 whole entry): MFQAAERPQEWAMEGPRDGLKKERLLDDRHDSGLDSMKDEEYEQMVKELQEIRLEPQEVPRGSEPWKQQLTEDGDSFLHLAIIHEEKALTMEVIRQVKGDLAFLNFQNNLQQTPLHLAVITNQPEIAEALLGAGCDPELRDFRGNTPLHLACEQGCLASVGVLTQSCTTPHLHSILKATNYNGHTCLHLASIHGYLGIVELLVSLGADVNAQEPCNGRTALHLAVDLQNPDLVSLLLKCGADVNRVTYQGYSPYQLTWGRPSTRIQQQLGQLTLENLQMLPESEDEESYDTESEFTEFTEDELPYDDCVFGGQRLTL

**Query** What does the data say about its IC50? Entry: C[C@H]1C(=O)OC[C@H]1C[C@@H](O)[C@](C)(O)[C@]1(O)CC[C@@]2(O)[C@@H]3CC=C4CC=CC(=O)[C@]4(C)[C@H]3CC[C@]12C
**Result** > 50 µM

**Query** What does the data say about its IC50? Entry: C[C@H]1C(=O)OC[C@H]1C[C@@H](O)[C@](C)(O)[C@@]1(O)CC[C@@]2(O)[C@@H]3CC=C4CC=CC(=O)[C@]4(C)[C@H]3CC[C@]12C
**Result** > 50 µM

**Query** What does the data say about its IC50? Entry: CC1=C(C)C(=O)O[C@@H]([C@](C)(O)C2=CC[C@@]3(O)[C@@H]4CC=C5CC=CC(=O)[C@]5(C)[C@H]4CC[C@]23C)C1
**Result** > 50 µM

**Query** What does the data say about its IC50? Entry: C=C1C(=O)O[C@@H]2C[C@@]1(C)[C@@H]1C(=O)[C@]3(O)O[C@]14[C@@]2(C)OC(=O)[C@@]4(O)CC[C@H]1[C@H]3CC=C2CC=CC(=O)[C@@]21C
**Result** 26.2 µM

**Query** What does the data say about its IC50? Entry: C[C@]12C(=O)C=CCC1=CC[C@@H]1[C@@H]2CC[C@]2(O)C(=O)O[C@@]3(C)[C@H]4C[C@@](C)([C@@H]5C(=O)[C@]1(O)O[C@@]532)[C@](C)(O)C(=O)O4
**Result** > 50 µM

**Query** What does the data say about its IC50? Entry: C[C@@]12C[C@H]3OC(=O)[C@]1(O)CO[C@]14O[C@@]5([C@H]2C1=O)[C@@]3(C)OC(=O)[C@@]5(O)CC[C@H]1[C@H]4C[C@H]2O[C@]23CC=CC(=O)[C@]13C [25-HYDROXY PHYSALIN F]
**Result** 30.1 µM

**Query** What does the data say about its IC50? Entry: C[C@@]12C[C@H]3OC(=O)[C@@H]1CO[C@@]14O[C@]5(C2C1=O)[C@@](O)(CC[C@H]1[C@H]4C[C@@H]2O[C@@]24CC=CC(=O)[C@]14C)C(=O)O[C@@]35C [PHYSALIN J]
**Result** > 50 µM

**Query** What does the data say about its IC50? Entry: C[C@]12C(=O)C=CCC1=CC[C@@H]1[C@@H]2CC[C@]2(O)C(=O)O[C@@]3(C)[C@H]4C[C@]5(C)[C@@H](CO[C@@]16O[C@@]32[C@H]5C6=O)C(=O)O4 [NSC-287088]
**Result** 37.5 µM

**Query** What does the data say about its IC50? Entry: C[C@@]12C[C@H]3OC(=O)[C@]1(O)CO[C@]14O[C@@]5([C@H]2C1=O)[C@@]3(C)OC(=O)[C@@]5(O)CC[C@H]1[C@H]4C[C@@H]2O[C@@]23CC=CC(=O)[C@]13C [25-HYDROXY PHYSALIN J]
**Result** > 50 µM

**Query** What does the data say about its IC50? Entry: C=C1C(=O)O[C@@H]2C[C@@]1(C)[C@@H]1C(=O)[C@]3(O)O[C@]14[C@@]2(C)OC(=O)[C@@]4(O)CC[C@H]1[C@H]3[C@H](O)C=C2CC=CC(=O)[C@@]21C [PHYSALIN A]
**Result** > 50 µM

**Query** What does the data say about its IC50? Entry: CC1=C(C)C(=O)O[C@@H]([C@](C)(O)[C@]2(O)CC[C@@]3(O)[C@@H]4CC=C5CC=CC(=O)[C@]5(C)[C@H]4CC[C@]23C)C1 [WITHANOLIDE F]
**Result** > 50 µM

**Query** What does the data say about its IC50? Entry: CC1=C(C)C(=O)O[C@@H]([C@](C)(O)[C@H]2CC[C@@]3(O)[C@@H]4CC=C5CC=CC(=O)[C@]5(C)[C@H]4CC[C@]23C)C1
**Result** > 50 µM

**Query** What does the data say about its IC50? Entry: C[C@@H]1C(=O)O[C@@H]2C[C@@]1(C)[C@@H]1C(=O)[C@]3(O)O[C@]14[C@@]2(C)OC(=O)[C@@]4(O)CC[C@H]1[C@H]3[C@H](O)C=C2CC=CC(=O)[C@@]21C [PHYSALIN O]
**Result** > 50 µM

**Query** What does the data say about its IC50? Entry: C[C@]12C(=O)C=CCC1=C[C@@H](O)[C@@H]1[C@@H]2CC[C@@]2(O)C(=O)O[C@@]3(C)[C@H]4C[C@]5(C)[C@@H](CO[C@@]16O[C@]23[C@H]5C6=O)C(=O)O4
**Result** > 50 µM

**Query** What does the data say about its IC50? Entry: CC1=C(C)C(=O)O[C@@H]([C@](C)(O)[C@]2(O)CC[C@@]3(O)[C@@H]4C[C@H]5O[C@]56CC=CC(=O)[C@]6(C)[C@H]4CC[C@]23C)C1 [WITHANOLIDE E]
**Result** 18 µM

**Query** What does the data say about its IC50? Entry: C[C@@]12C[C@H]3OC(=O)[C@@H]1CO[C@]14O[C@]5([C@H]2C1=O)[C@@](O)(CC[C@H]1[C@H]4C[C@H]2O[C@]24CC=CC(=O)[C@]14C)C(=O)O[C@@]35C [PHYSALIN F]
**Result** 27.1 µM
